# measurement-protocol: Pharmacokinetic test in rats
# Format: in vivo, SD rats
# test-settings: male, SD, rat, po; rats plasma, i.g. 5 mg/kg
Recorded AUC(0-t) values for a group of compounds are listed next.

compound	AUC(0-t)
[2H]C([2H])([2H])NC(=O)COc1cc2cc(Nc3nc(N4CCC(O[C@H]5C[C@H](N6CCN7c8cc(F)c(C9CCC(=O)NC9=O)cc8CC[C@H]7C6)C5)CC4)ncc3Cl)ccc2n(C([2H])([2H])[2H])c1=O (stereo partly drawn) [Trifluoroacetate of compound 71]	> 1000 ng·h/mL
CCn1c(=O)c(OCC(=O)NC)cc2cc(Nc3nc(N4CCC(O[C@H]5C[C@H](N6CCN7c8cc(F)c(C9CCC(=O)NC9=O)cc8CC[C@@H]7C6)C5)CC4)ncc3Cl)ccc21 (stereo partly drawn) [Trifluoroacetate of compound 74]	> 1000 ng·h/mL

Lab note: CNC(=O)COc1cc2cc(Nc3nc(N4CCC(O[C@H]5C[C@H](N6CCn7c(cc8cc(C9CCC(=O)NC9=O)c(F)cc87)C6)C5)CC4)ncc3Cl)ccc2n(C(C)C)c1=O (stereo partly drawn) [Trifluoroacetate of compound 78] gave AUC(0-t) of > 1000 ng·h/mL
